Each entry below lists one item and its recorded Kd value.
System Name: SARS-CoV-2 RBD (residues 331-550 of spike from BetaCoV/Wuhan-Hu-1/2019, accession number MN908947) (SARS-CoV-2 Wuhan-Hu-1, UniProt P0DTC2 331-550)
Assay Name: BLI
Endpoint Label: Kd (nM)

- Binder: "S2X259 variant antibody, VH SEQ ID NO 459 / VL SEQ ID NO 445 (antibody, V domains shown) VH: QVQLVQSGAEVKKPGSSVKVSCKASGGIFNTYTISWVRQAPGQGLEWMGRIILMSGKANYAQKIQGRVTITADKSTSTAYMELTSLRSDDTAVYYCARGFNGNYYGWGDDDAFDIWGQGTLVTVSS VL: QTVLTQPPSVSGAPGQRVTISCTGSNSNIGAGYDVHWYQQLPGTAPKLLIVGNSNRPSGVPDRFSGSKSGTSASLAITGLQAEDEADYYCQSYDSSLSGPNWVFGGGTKLTVL"
  Endpoint Label: "Kd"
  Endpoint Result: 0.108
- Binder: "S2X259 variant antibody, VH SEQ ID NO 458 / VL SEQ ID NO 445 (antibody, V domains shown) VH: QVQLVQSGAEVKKPGSSVKVSCKASGGIFNTYTISWVRQAPGQGLEWMGRIILMSGMANYAQKIQGRVTITADKSTSTAYMELTSLRSDDTAVYYCARGFNGNYYGWGDDDAFDIWGQGTLVTVSS VL: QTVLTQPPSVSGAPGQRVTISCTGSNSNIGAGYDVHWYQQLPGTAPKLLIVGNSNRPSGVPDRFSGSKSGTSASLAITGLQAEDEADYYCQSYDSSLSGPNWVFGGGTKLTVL"
  Endpoint Label: "Kd"
  Endpoint Result: 0.0836
- Binder: "S2X259 variant antibody, VH SEQ ID NO 408 / VL SEQ ID NO 445 (antibody, V domains shown) VH: QVQLVQSGAEVKKPGSSVKVSCKASGGIFNTYTISWVRQAPGQGLEWMGRIILMSGMANYAQKIQGRVTITADKSTSTAYMELTSLRSDDTAVYYCARGFNGNYYGWGDDDAFDISGQGTLVTVYS VL: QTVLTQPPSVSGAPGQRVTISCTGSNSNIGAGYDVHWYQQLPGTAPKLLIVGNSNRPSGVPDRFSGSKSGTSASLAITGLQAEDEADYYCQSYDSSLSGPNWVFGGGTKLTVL"
  Endpoint Label: "Kd"
  Endpoint Result: 0.0314
